Target: hZαADAR1 (human) (UniProt P55265)
Sequence: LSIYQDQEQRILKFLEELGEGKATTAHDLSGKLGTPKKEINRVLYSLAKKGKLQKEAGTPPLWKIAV
Test: MST
Settings: 5-bromo-dC at every C, MST at 22 C, 5 nM labeled DNA, 0.5 mg/ml BSA, 0.05% Tween 20, 5 mM HEPES pH 7.5, 20 mM NaCl (Table 2), 20 mM HEPES pH 8.0, 100 mM NaCl (Table 4)
Measurement Kind: Kd (nM)
Return type: number; implicit unit nM.

GET /values?readout=Kd&item= TCGCGCGCGCGCGCGCGCGCGCGCGCGCGCG (double strand) [Z-DNA, [d(5'-Cy5-T(Br5CG)15)]2] 18

###

Target: GH5*:α3NADAR1-PW K41G;S42G;R43G;K53A;R95A;del65;D66K;L67K;Q68E;K70N;L71R;S72V;I73L;R74Y;R75S;S91P;F94W (/ human ADAR1 α3N and β-wing residues)
Sequence: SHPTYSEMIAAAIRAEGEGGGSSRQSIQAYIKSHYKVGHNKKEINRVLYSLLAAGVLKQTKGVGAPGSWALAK
Experiment: MST
Conditions: 5-bromo-dC at every C, MST at 22 C, 5 nM labeled DNA, 0.5 mg/ml BSA, 0.05% Tween 20, 5 mM HEPES pH 7.5, 20 mM NaCl (Table 2), 20 mM HEPES pH 8.0, 100 mM NaCl (Table 4)
Measurement Kind: Kd (nM)
Return type: number; implicit unit nM.

GET /values?readout=Kd&item= TCGCGCGCGCGCGCGCGCGCGCGCGCGCGCG (double strand) [Z-DNA, [d(5'-Cy5-T(Br5CG)15)]2] 1800

###

Biological target: vvZαE3L (UniProt P21605)
Experiment: MST
Conditions: 5-bromo-dC at every C, MST at 22 C, 5 nM labeled DNA, 0.5 mg/ml BSA, 0.05% Tween 20, 5 mM HEPES pH 7.5, 20 mM NaCl (Table 2), 20 mM HEPES pH 8.0, 100 mM NaCl (Table 4)
Measurement Kind: Kd (nM)
Return type: number; implicit unit nM.

Could you share what Kd was measured for TCGCGCGCGCGCGCGCGCGCGCGCGCGCGCG (double strand) [Z-DNA, [d(5'-Cy5-T(Br5CG)15)]2] , tested on vvZαE3L (UniProt P21605)? 2000
